Measured Short-time stability (24h, RT, with daylight) Accuracy [%] values are reported for all entries that follow.
- test: Short-term stability in spiked pooled human plasma (bench-top, 4 °C, 56 °C)
- condition_info: validation standard LLOV
Supply the numeric figure in %, leaving out any unit text.

Below, 2 compounds whose answers are already recorded.
compound	observed_result
CNC(=O)c1ccc(N2C(=S)N(c3ccc(C#N)c(C(F)(F)F)c3)C(=O)C2(C)C)cc1F [Enzalutamide]	100.4
CN(C)C(=O)c1cc2cnc(Nc3ccc(N4CCNCC4)cn3)nc2n1C1CCCC1	79.3

Record request: Short-time stability (24h, RT, with daylight) Accuracy [%] value, item Cc1cn(-c2cc(NC(=O)c3ccc(C)c(Nc4nccc(-c5cccnc5)n4)c3)cc(C(F)(F)F)c2)cn1
94.9

Record request: Short-time stability (24h, RT, with daylight) Accuracy [%] value, item C[C@@H](Oc1cc(-c2cnn(C3CCNCC3)c2)cnc1N)c1c(Cl)ccc(F)c1Cl
62.9

----------
Measured Long-term stability, 2 month, -80°C Accuracy [%] values are reported for all entries that follow.
- test: Long-term stability in spiked pooled human plasma
- condition_info: validation standard ULOV

Record request: Long-term stability, 2 month, -80°C Accuracy [%] value, item NC(=O)c1cccc2cn(-c3ccc([C@@H]4CCCNC4)cc3)nc12
104.1%

Record request: Long-term stability, 2 month, -80°C Accuracy [%] value, item C#Cc1cccc(Nc2ncnc3cc(OCCOC)c(OCCOC)cc23)c1
104.4%

Record request: Long-term stability, 2 month, -80°C Accuracy [%] value, item CCc1cc2c(cc1N1CCC(N3CCOCC3)CC1)C(C)(C)c1[nH]c3cc(C#N)ccc3c1C2=O
88.1%

Record request: Long-term stability, 2 month, -80°C Accuracy [%] value, item CC(=O)Nc1cccc(-n2c(=O)n(C3CC3)c(=O)c3c(Nc4ccc(I)cc4F)n(C)c(=O)c(C)c32)c1
115.3%

----------
Measured Short-time stability (24h, 4°C, without daylight) Accuracy [%] values are reported for all entries that follow.
- test: Short-term stability in spiked pooled human plasma (bench-top, 4 °C, 56 °C)
- condition_info: validation standard 2xLLOV
Supply the numeric figure in %, leaving out any unit text.

Below, 2 compounds whose answers are already recorded.
compound	measure_unit	observed_result
CNC(=O)c1cc(Oc2ccc(NC(=O)Nc3ccc(Cl)c(C(F)(F)F)c3)c(F)c2)ccn1	%	95.0
CNCc1ccc(-c2[nH]c3cc(F)cc4c3c2CCNC4=O)cc1	%	94.0

Record request: Short-time stability (24h, 4°C, without daylight) Accuracy [%] value, item CNC(=O)c1ccccc1Sc1ccc2c(/C=C/c3ccccn3)n[nH]c2c1
103.6

Record request: Short-time stability (24h, 4°C, without daylight) Accuracy [%] value, item O=C1CN2Cc3c(ccc(Cl)c3Cl)N=C2N1 [Anagrelide]
104.2

Record request: Short-time stability (24h, 4°C, without daylight) Accuracy [%] value, item CCN1CCN(Cc2ccc(Nc3ncc(F)c(-c4cc(F)c5nc(C)n(C(C)C)c5c4)n3)nc2)CC1
102.9

----------
- test: Autosampler stability of ready for injection samples
- Format: physicochemical, human
- condition_info: validation standard LLOV
Measured Autosampler (72h, 4°C) Accuracy [%] values are reported for all entries that follow.
Supply the numeric figure in %, leaving out any unit text.

structure_as_smiles	readout	observed_result
CCN1CCN(Cc2ccc(Nc3ncc(F)c(-c4cc(F)c5nc(C)n(C(C)C)c5c4)n3)nc2)CC1	Autosampler (72h, 4°C) Accuracy [%]	86.1
Cc1ccc(Nc2nccc(N(C)c3ccc4c(C)n(C)nc4c3)n2)cc1S(N)(=O)=O	Autosampler (72h, 4°C) Accuracy [%]	99.0
O=c1[nH]c(=O)n([C@H]2C[C@H](O)[C@@H](CO)O2)cc1C(F)(F)F	Autosampler (72h, 4°C) Accuracy [%]	86.9

# next compound below
Record request: Autosampler (72h, 4°C) Accuracy [%] value, item O=C(c1ccc(F)c(F)c1Nc1ccc(I)cc1F)N1CC(O)([C@@H]2CCCCN2)C1
93.0

----------
Measured Long-term stability, 1 month, -20°C Accuracy [%] values are reported for all entries that follow.
- test: Long-term stability in spiked pooled human plasma
- condition_info: validation standard LLOV
Supply the numeric figure in %, leaving out any unit text.

structure_as_smiles	measure_unit	observed_result
C[C@H]1Oc2cc(cnc2N)-c2c(nn(C)c2C#N)CN(C)C(=O)c2ccc(F)cc21	%	87.9
COc1cc(N2CCC(N3CCN(C)CC3)CC2)ccc1Nc1ncc(Cl)c(Nc2ccccc2P(C)(C)=O)n1	%	93.6
COc1cc2ncnc(Nc3ccc(F)c(Cl)c3)c2cc1NC(=O)/C=C/CN1CCCCC1	%	86.5
CCN(CC)CCNC(=O)c1c(C)[nH]c(/C=C2\C(=O)Nc3ccc(F)cc32)c1C	%	132.8
CCN1CCN(Cc2ccc(Nc3ncc(F)c(-c4cc(F)c5nc(C)n(C(C)C)c5c4)n3)nc2)CC1	%	103.5

Record request: Long-term stability, 1 month, -20°C Accuracy [%] value, item Cc1[nH]c2ccccc2c1CCNCc1ccc(/C=C/C(=O)NO)cc1
38.2

Record request: Long-term stability, 1 month, -20°C Accuracy [%] value, item CCC1=C[C@@H]2CN(C1)Cc1c([nH]c3ccccc13)[C@@](C(=O)OC)(c1cc3c(cc1OC)N(C)[C@H]1[C@@](O)(C(=O)OC)[C@H](OC(C)=O)[C@]4(CC)C=CCN5CC[C@]31[C@@H]54)C2
118.3

----------
- test: Short-term stability in spiked pooled human plasma (bench-top, 4 °C, 56 °C)
- condition_info: validation standard ULOV
Measured Short-time stability (1h, 56°C) Accuracy [%] values are reported for all entries that follow.
For clarity, give the value followed by its unit.

Below, 2 compounds whose answers are already recorded.
compound	observed_result
Cc1nc(Nc2ncc(C(=O)Nc3c(C)cccc3Cl)s2)cc(N2CCN(CCO)CC2)n1	38.9%
C[C@]12CC[C@H](O)CC1=CC[C@@H]1[C@@H]2CC[C@]2(C)C(c3cccnc3)=CC[C@@H]12	34.9%

Record request: Short-time stability (1h, 56°C) Accuracy [%] value, item NC(=O)c1cccc2cn(-c3ccc([C@@H]4CCCNC4)cc3)nc12
43.8%

Record request: Short-time stability (1h, 56°C) Accuracy [%] value, item CCOc1cc2ncc(C#N)c(Nc3ccc(OCc4ccccn4)c(Cl)c3)c2cc1NC(=O)/C=C/CN(C)C
21.9%

Record request: Short-time stability (1h, 56°C) Accuracy [%] value, item COc1cc2nccc(Oc3ccc(NC(=O)C4(C(=O)Nc5ccc(F)cc5)CC4)cc3)c2cc1OC [Cabozantinib]
44.1%

Record request: Short-time stability (1h, 56°C) Accuracy [%] value, item CN(C)C/C=C/C(=O)Nc1cc2c(Nc3ccc(F)c(Cl)c3)ncnc2cc1O[C@H]1CCOC1
33.2%

----------
- test: Autosampler stability of ready for injection samples
- Format: physicochemical, human
- condition_info: validation standard MOV
readout: Autosampler (24h, 4°C) Accuracy [%]

Below, 2 compounds whose answers are already recorded.
compound	readout	observed_result
Cc1cn(-c2cc(NC(=O)c3ccc(C)c(Nc4nccc(-c5cccnc5)n4)c3)cc(C(F)(F)F)c2)cn1	Autosampler (24h, 4°C) Accuracy [%]	102.7%
COc1cc2ncnc(Nc3ccc(F)c(Cl)c3)c2cc1NC(=O)/C=C/CN1CCCCC1	Autosampler (24h, 4°C) Accuracy [%]	104.5%

Record request: Autosampler (24h, 4°C) Accuracy [%] value, item C=CC(=O)N1CCC[C@@H](n2nc(-c3ccc(Oc4ccccc4)cc3)c3c(N)ncnc32)C1
103.0%

Record request: Autosampler (24h, 4°C) Accuracy [%] value, item Cc1ccc(C(=O)Nc2ccc(CN3CCN(C)CC3)c(C(F)(F)F)c2)cc1C#Cc1cnc2cccnn12
106.1%

Record request: Autosampler (24h, 4°C) Accuracy [%] value, item CNC(=O)c1cc(Oc2ccc(NC(=O)Nc3ccc(Cl)c(C(F)(F)F)c3)c(F)c2)ccn1
101.4%

Record request: Autosampler (24h, 4°C) Accuracy [%] value, item O=C1CCC(N2C(=O)c3ccccc3C2=O)C(=O)N1 (centres unmarked) [Thalidomide]
105.2%

Record request: Autosampler (24h, 4°C) Accuracy [%] value, item CS(=O)(=O)CCNCc1ccc(-c2ccc3ncnc(Nc4ccc(OCc5cccc(F)c5)c(Cl)c4)c3c2)o1
103.2%

Record request: Autosampler (24h, 4°C) Accuracy [%] value, item CC1(C)CCC(CN2CCN(c3ccc(C(=O)NS(=O)(=O)c4ccc(NCC5CCOCC5)c([N+](=O)[O-])c4)c(Oc4cnc5[nH]ccc5c4)c3)CC2)=C(c2ccc(Cl)cc2)C1
100.0%

Record request: Autosampler (24h, 4°C) Accuracy [%] value, item Nc1cccc2c1C(=O)N(C1CCC(=O)NC1=O)C2=O (centres unmarked) [Pomalidomide]
104.5%

Record request: Autosampler (24h, 4°C) Accuracy [%] value, item O=c1[nH]c(=O)n([C@H]2C[C@H](O)[C@@H](CO)O2)cc1C(F)(F)F
113.1%

Hello, the source for this data is paper PMC8699473, in case you need it.
